# pIC50 annotations
# study-target: Cystathionine gamma-lyase (Homo sapiens)
# Sequence (P32929 whole entry): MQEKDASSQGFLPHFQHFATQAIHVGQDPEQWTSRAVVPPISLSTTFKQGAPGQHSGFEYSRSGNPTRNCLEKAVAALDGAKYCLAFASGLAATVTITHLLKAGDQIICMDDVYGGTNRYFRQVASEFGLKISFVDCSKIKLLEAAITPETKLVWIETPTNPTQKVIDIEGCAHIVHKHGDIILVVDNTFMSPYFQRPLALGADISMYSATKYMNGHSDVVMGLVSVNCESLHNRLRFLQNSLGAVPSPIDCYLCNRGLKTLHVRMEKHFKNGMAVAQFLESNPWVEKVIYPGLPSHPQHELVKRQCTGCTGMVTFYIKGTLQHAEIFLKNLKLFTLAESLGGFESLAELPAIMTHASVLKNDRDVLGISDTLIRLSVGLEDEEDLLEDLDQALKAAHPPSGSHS
# assay-protocol: Inhibition of human CSE using H-Cys as the substrate by LC/MS/MS-based assay
Please note pIC50 is a logarithmic value: minus log10 of concentration in mol/L. Answer with that number alone.

{"compound": "COc1cccc2c1C(=O)C1=C(C[C@H](CC(=O)O)O[C@H]1C)C2=O", "study-target": "Cystathionine gamma-lyase (Homo sapiens)", "test-value": 4.87}

// fetch pIC50; item: O=[N+]([O-])c1ccc(O)c2ncccc12 [NITROXOLINE] ; system: Cystathionine gamma-lyase (Homo sapiens)
5.22

// fetch pIC50; item: O=C(O)C1=CC(=C(c2ccc(O)c(C(=O)O)c2)c2ccc(O)c(C(=O)O)c2)C=CC1=O [AURINTRICARBOXYLIC ACID] ; system: Cystathionine gamma-lyase (Homo sapiens)
5.48
